target of assay: β-lactamase from Enterobacter cloacae P99 (Enterobacter cloacae, UniProt P05364)
Construct: host or cells: Enterobacter cloacae P99 (the producing strain)
Sequence (P05364 21-381): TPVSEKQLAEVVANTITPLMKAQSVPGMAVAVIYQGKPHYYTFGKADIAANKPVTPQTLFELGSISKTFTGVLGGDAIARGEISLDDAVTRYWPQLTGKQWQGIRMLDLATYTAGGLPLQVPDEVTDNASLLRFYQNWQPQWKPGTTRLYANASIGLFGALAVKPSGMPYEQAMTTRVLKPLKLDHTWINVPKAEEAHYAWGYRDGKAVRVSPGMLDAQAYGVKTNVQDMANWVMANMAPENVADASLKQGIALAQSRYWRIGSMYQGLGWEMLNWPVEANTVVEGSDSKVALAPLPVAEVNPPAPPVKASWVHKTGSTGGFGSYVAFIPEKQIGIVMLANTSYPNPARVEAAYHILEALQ
test: β-lactamase inhibition I50
Format: biochemical
settings: β-lactamase from Enterobacter cloacae P99
measurement kind: IC50 (nM)
Kindly provide the numeric value in nM only, without the unit symbol.

Can you share its IC50? I mean this molecule: C=CC1=CN2C(=O)C[C@H]2O1 [Example 1]
190

====

target of assay: β-lactamase from E. coli JT4 (Escherichia coli, UniProt P62593)
Construct: host or cells: E. coli JT4 (the producing strain)
Sequence (P62593 24-286 limits assumed): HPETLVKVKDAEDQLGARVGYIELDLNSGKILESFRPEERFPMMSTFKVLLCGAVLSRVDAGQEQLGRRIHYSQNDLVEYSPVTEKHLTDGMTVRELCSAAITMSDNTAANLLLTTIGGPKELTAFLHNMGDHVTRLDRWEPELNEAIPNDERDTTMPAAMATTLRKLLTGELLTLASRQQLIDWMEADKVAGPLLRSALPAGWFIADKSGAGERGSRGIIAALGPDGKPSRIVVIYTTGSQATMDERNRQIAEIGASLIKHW
test: β-lactamase inhibition I50
Format: biochemical
Recorded IC50 values for a group of compounds are listed next.
Give the value, in units of nM, as a plain number.

line notation	units text	IC50
CC=C1CN2C(=O)C[C@H]2O1	nM	1580

IC50 lookup needed for `C=CC1=CN2C(=O)C[C@H]2O1` , thanks.
408

Recorded values, source patent US4145430A.
